Measured values drawn from patent US9181236B2 for this set.

# tested_on: soluble human BACE1 catalytic domain (Homo sapiens (Human), UniProt P56817)
# Sequence (P56817 75-416): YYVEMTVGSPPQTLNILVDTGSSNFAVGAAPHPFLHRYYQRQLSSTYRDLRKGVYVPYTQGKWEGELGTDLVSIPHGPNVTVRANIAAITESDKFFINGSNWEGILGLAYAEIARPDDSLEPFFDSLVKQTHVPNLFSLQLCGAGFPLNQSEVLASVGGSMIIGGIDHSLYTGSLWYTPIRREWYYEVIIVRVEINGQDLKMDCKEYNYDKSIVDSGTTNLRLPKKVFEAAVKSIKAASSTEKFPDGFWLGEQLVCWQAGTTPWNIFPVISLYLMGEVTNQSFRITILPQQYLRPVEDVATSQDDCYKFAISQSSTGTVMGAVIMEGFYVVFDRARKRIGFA
quantity_kind: Ki (nM)

Some entries whose results are on file:
# molecule, value_unit, Ki
measured = [
    ("C[C@@]1(c2cc(NC(=O)C3CC3(F)F)ccc2F)CS(=O)(=O)[C@]2(CCOC2)C(=N)N1 (stereo partly shown) [Example 81s]", "nM", 1250),
    ("C[C@@]1(c2sc(C(=O)NCc3ccncn3)cc2Cl)CS(=O)(=O)C2(CCCCC2)C(=N)N1 [Example 80c]", "nM", 4150),
]

[I] COc1ccc(C(=O)Nc2ccc(F)c([C@]3(C)CS(=O)(=O)[C@]4(CCOC4)C(=N)N3)c2)nc1 [Example 62a]
[II] COc1ccc(C(=O)Nc2ccc(F)c([C@]3(C)CS(=O)(=O)C4(CC4)C(=N)N3)c2)nc1
Exercise: Compare Ki: is it lower for I or for II ? Provide the label of your selected option as the answer.
Key: II

====

Reported pKi, purified human autoBACE-2 (Homo sapiens (Human)).
Worth noting: pKi values are minus log10 of concentrations stated in mol/L.

Some entries whose results are on file:
# molecule, quantity_kind, observed_measurement
data = [
    ("C[C@@]1(c2sc(Br)cc2Cl)CS(=O)(=O)C2(CC2)C(=N)N1", "pKi", 6.33),
    ("C[C@@]1(c2cc(NC(=O)c3ccc(F)cn3)ccc2F)CS(=O)(=O)C2(CC(O)C2)C(=N)N1 (some centres unmarked) [Example 74]", "pKi", 8.42),
    ("C[C@@]1(c2sc(Br)cc2Cl)CS(=O)(=O)C2(CCC2)C(=N)N1", "pKi", 6.27),
]

API: the following record is the query input.
Exercise: Would you mind telling me what pKi value was observed for C[C@@]1(c2cc(NC(=O)c3ccc(Cl)cn3)ccc2F)CS(=O)(=O)[C@@]2(CCOC2)C(=N)N1 [Example 63c] ?
Key: 8.89

====

# tested_on: UniProt:Q9Y5Z0
pKi: −log10 of the molar value.
quantity_kind: pKi

[P] C[C@@]1(c2cc([N+](=O)[O-])ccc2F)CS(=O)(=O)C2(CCCC2)C(=N)N1
[Q] COc1cccc2cc(-c3cc(Cl)c([C@]4(C)CS(=O)(=O)[C@]5(CCOC5)C(=N)N4)s3)[nH]c12 [Example 62g]
[R] C[C@@]1(c2sc(-c3cncc(-c4ncco4)c3)cc2Cl)CS(=O)(=O)[C@]2(CCOC2)C(=N)N1 [Example 62h]
Exercise: Put the items in order so that reported pKi rises from first to last. Enter labels, ranked according to the request.
Key: P, R, Q

====

pKi: −log10 of the molar value.
Reported pKi, UniProtKB Q9Y5Z0.
quantity_kind: pKi

# compound, pKi
records = [
    ("C[C@@]1(c2sc(C(=O)Nc3cccc(Cl)n3)cc2Cl)CS(=O)(=O)C2(CC2)C(=N)N1 [Example 79b]", 8.40),
]

[1] C[C@@]1(c2cc(NC(=O)c3cnsn3)ccc2F)CS(=O)(=O)C2(CCCC2)C(=N)N1 [Example 23]
[2] C[C@@]1(c2cc([N+](=O)[O-])ccc2F)CS(=O)(=O)[C@@]2(CCOC2)C(=N)N1
Exercise: Compare pKi: is it lower for 1 or for 2 ? Provide the label of your selected option as the answer.
Key: 2
(2: 5.57, 1: 8.51)
